Reference for the values: patent US20260193293A1

- Measured On: Sushi domains (SD1/2) protein
- Assay Text: Fluorescence polarization (FP) competition assay with AJAP-1probe, calculated Ki
- Type: binding
- Stated Conditions: Table 8, Ala-, D-amino acids and N-methylation scans of AJAP-1WT; read-out: Ki (nM) mean ± SEM
Non-standard residues stand in square brackets, D forms with d. Residues, ends and D or L forms follow the SMILES beside them. NMeT = CN[C@H](C(=O)O)[C@@H](C)O; NMeD = CN[C@@H](CC(=O)O)C(=O)O
The entries below come with measured Ki values attached.
Answer format: numeric, nM implied, no suffix.

Some compounds with recorded Ki:
CC[C@H](C)[C@H](NC(=O)[C@H](Cc1ccccc1)NC(=O)[C@H](CCC(=O)O)NC(=O)[C@@H](NC(=O)[C@H](CCC(=O)O)NC(C)=O)[C@@H](C)O)C(=O)N[C@@H](C)C(=O)N[C@@H](Cc1c[nH]c2ccccc12)C(=O)NCC(=O)N[C@@H](C)C(=O)N[C@H](C(=O)NCC(=O)N[C@@H](CC(=O)O)C(=O)N[C@@H](CCC(=O)O)C(=O)N[C@@H](CC(=O)O)C(N)=O)[C@@H](C)O [ETEFIAWGATGDED] (Ac-ETEFIAWGATGDED-NH2)    291
CC[C@H](C)[C@H](NC(=O)[C@H](Cc1ccccc1)NC(=O)[C@H](CCC(=O)O)NC(=O)[C@@H](NC(=O)[C@H](CCC(=O)O)NC(C)=O)[C@@H](C)O)C(=O)N[C@@H](C)C(=O)N[C@@H](Cc1c[nH]c2ccccc12)C(=O)NCC(=O)N1CCC[C@H]1C(=O)N[C@H](C(=O)NCC(=O)N[C@@H](CC(=O)O)C(=O)N[C@@H](CCC(=O)O)C(=O)N[C@@H](CC(=O)O)C(N)=O)[C@@H](C)CC [ETEFIAWGPIGDED] (Ac-ETEFIAWGPIGDED-NH2)    48

Which Ki is reported for this compound? CC[C@H](C)[C@H](NC(=O)[C@H](Cc1ccccc1)NC(=O)[C@H](CCC(=O)O)NC(=O)[C@@H](NC(=O)[C@H](CCC(=O)O)NC(C)=O)[C@@H](C)O)C(=O)N[C@@H](C)C(=O)N[C@@H](Cc1c[nH]c2ccccc12)C(=O)NCC(=O)N1CCC[C@H]1C(=O)N[C@H](C(=O)NCC(=O)N[C@@H](CC(=O)O)C(=O)N[C@@H](CCC(=O)O)C(=O)N(C)[C@@H](CC(=O)O)C(N)=O)[C@@H](C)O (Ac-ETEFIAWGPTGDE[NMeD]-NH2)
29

Repeat with CC[C@H](C)[C@H](NC(=O)[C@H](Cc1ccccc1)NC(=O)[C@H](CCC(=O)O)NC(=O)[C@H]([C@@H](C)O)N(C)C(=O)[C@H](CCC(=O)O)NC(C)=O)C(=O)N[C@@H](C)C(=O)N[C@@H](Cc1c[nH]c2ccccc12)C(=O)NCC(=O)N1CCC[C@H]1C(=O)N[C@H](C(=O)NCC(=O)N[C@@H](CC(=O)O)C(=O)N[C@@H](CCC(=O)O)C(=O)N[C@@H](CC(=O)O)C(N)=O)[C@@H](C)O [E(N-Me-T)EFIAWGPTGDED] (Ac-E[NMeT]EFIAWGPTGDED-NH2)
37

Repeat with CC[C@H](C)[C@H](NC(=O)[C@H](Cc1ccccc1)NC(=O)[C@H](C)NC(=O)[C@@H](NC(=O)[C@H](CCC(=O)O)NC(C)=O)[C@@H](C)O)C(=O)N[C@@H](C)C(=O)N[C@@H](Cc1c[nH]c2ccccc12)C(=O)NCC(=O)N1CCC[C@H]1C(=O)N[C@H](C(=O)NCC(=O)N[C@@H](CC(=O)O)C(=O)N[C@@H](CCC(=O)O)C(=O)N[C@@H](CC(=O)O)C(N)=O)[C@@H](C)O [ETAFIAWGPTGDED] (Ac-ETAFIAWGPTGDED-NH2)
49
